Source: ChEMBL document CHEMBL1145038

Target: Histamine H3 receptor (Rattus norvegicus, UniProt Q9QYN8)
Sequence (Q9QYN8 whole entry): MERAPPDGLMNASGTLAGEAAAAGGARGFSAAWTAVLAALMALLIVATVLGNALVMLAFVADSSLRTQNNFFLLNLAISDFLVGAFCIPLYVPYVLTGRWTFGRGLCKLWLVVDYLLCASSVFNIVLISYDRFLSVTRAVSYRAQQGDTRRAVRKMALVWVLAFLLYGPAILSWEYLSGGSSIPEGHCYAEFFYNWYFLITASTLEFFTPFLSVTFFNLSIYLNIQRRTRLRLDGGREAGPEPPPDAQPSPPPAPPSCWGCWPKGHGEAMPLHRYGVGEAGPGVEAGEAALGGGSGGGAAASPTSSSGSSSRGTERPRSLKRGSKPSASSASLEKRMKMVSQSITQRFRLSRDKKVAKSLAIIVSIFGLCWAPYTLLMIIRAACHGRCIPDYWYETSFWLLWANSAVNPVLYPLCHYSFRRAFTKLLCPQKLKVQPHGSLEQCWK
Test: Affinity against rat Histamine H3 receptor using [3H]N-alpha-methyl histamine
Ki values for the compounds below.
Form entry: value (nM) — number only.

Before answering, review these 3 worked examples.
{"columns": ["compound", "Ki / nM"],
 "data": [
  ["NC[C@H]1C[C@@H]1c1cnc[nH]1", 10.1],
  ["NCC[C@H]1C[C@H]1c1cnc[nH]1", 4.78],
  ["NC[C@@H]1C[C@H]1c1c[nH]cn1", 22.6]
]}

# input for lookup
Summary line: N[C@H]1C[C@@H]1c1c[nH]cn1 [VUF-5297] , Histamine H3 receptor (Rattus norvegicus, UniProt Q9QYN8), reported Ki = 4.3
